Data credit: patent US8193191B2

Catalogue of molecules with associated Ki
# testedSystem: endogenous human UII receptor (Homo sapiens, UniProt Q9UKP6)
# Sequence (Q9UKP6 whole entry): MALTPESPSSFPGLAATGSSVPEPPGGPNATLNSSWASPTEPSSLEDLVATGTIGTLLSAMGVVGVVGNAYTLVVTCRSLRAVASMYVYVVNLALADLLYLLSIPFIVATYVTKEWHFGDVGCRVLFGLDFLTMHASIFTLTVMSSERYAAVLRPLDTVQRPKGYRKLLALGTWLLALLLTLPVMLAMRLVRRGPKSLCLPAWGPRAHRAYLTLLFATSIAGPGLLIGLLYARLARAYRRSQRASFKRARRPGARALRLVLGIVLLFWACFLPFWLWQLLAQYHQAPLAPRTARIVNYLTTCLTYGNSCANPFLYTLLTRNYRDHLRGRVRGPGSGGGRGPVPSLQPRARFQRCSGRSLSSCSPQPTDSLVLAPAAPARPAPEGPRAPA
# experimentalDetails: Human Radioligand Binding Assay ((^125I)-U-II binding to human skeletal muscle myoblasts)

Identify Ki associated with the molecule "COc1ccc([C@@H](CCCNC(=O)c2conc2C)N2C(=O)c3cccc(N4CCN([C@H](C)c5ccccc5)CC4)c3C2=O)cc1OC"
99 nM

***
Return Ki for the following molecule: CCN1CCN(c2cccc3c2C(=O)N(C(c2cccc(NS(=O)(=O)O)c2)c2ccc(OC)c(OC)c2)C3=O)CC1 (stereo not shown)
511 nM

Give Ki for the following molecule: "CCN1CCN(c2cccc3c2C(=O)N([C@H](CCCOCC(C)C)c2ccc(OC)c(OC)c2)C3=O)CC1"
> 300 nM

Tell me measured Ki for "COc1ccc([C@@H](CCCNC(C)=N)N2C(=O)c3cccc(N4CCN([C@H](C)c5ccccc5)CC4)c3C2=O)cc1OC" please.
510 nM
